# Test system: CP266
# assay text: qHTS profiling for inhibitors of Plasmodium falciparum proliferation (AID 504749); further: nearly all actives have a fitted effect of over 60% in size
# study conditions: P. falciparum in erythrocytes, SYBR Green DNA, 72 h; series mostly up to 28.7 µM
Inconclusive results are not listed. Active and inactive are the calls of the source. The call rests on the fitted dose curve; in most records, active means well fitted inhibition curve with a large enough effect; inconclusive means small, poorly fitted or top-dose-only effect; inactive means flat fitted curve, though single readings scatter.
Please answer using one outcome listed in y for active, n for inactive

Below, 3 compounds whose answers are already recorded.
## Task Tell me the assay call for CC(=O)N1CC(O)CC1C(=O)O (centres undefined) please.
## Result n

## Task Try the compound CCC(C(=O)C(C)C(O)C(C)CCc1ccc(C)c(O)c1C(=O)O)C1OC(CC)(C2CC[C@@](O)(CC)C(C)O2)CC1C (some centres undefined)
## Result y

## Task Try the compound NC(=O)c1ncn(C2OC(CO)C(O)C2O)c1N (centres undefined)
## Result n

Kindly review the next compound as well.
## Task Tell me the assay call for C[C@H]1[C@@H](OC(=O)CCC(=O)O)OC2OC3(C)CC[C@H]4[C@H](C)CC[C@@H]1[C@@]24OO3 (some centres undefined) please.
## Result y
